# ASSAY NAME: protein stability index of a GFP-peptide fusion (GPS, HEK-293T) (PSI 1-6); higher = more stable;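 note: 24-mer peptide tiles fused after GFP, lentivirally expressed, FACS-sorted into six equal bins by GFP/DsRed ratio, decoded by Illumina sequencing, PSI is the read-weighted mean bin number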
# MEASUREMENT CONDITIONS: treatment: DMSO; c terminus: a fixed tail appended
# protein stability index binned as bin 0 = under 3, bin 1 = from 3 up to 4, bin 2 = 4 and over

RESIDUE STRING: LNDISRKSEGLSGRVLRKLPFLAH [TRIP13]
QUALITATIVE LABEL: bin 0
//
RESIDUE STRING: RELESREAELRRRDTFYKEQLERI [CHCHD6]
QUALITATIVE LABEL: bin 2
//
RESIDUE STRING: FVSFFNKWDAENAIQQMGGQWLGG [TIA1]
QUALITATIVE LABEL: bin 0
//
RESIDUE STRING: VDRLPGLQGALDLLAVLCVDGSGR [ZSWIM9]
QUALITATIVE LABEL: bin 0
//
RESIDUE STRING: FALQGLPLNCAPCPRRSEPVVQCQ [IRX6]
QUALITATIVE LABEL: bin 0
//
RESIDUE STRING: KSLEWSPWNCILLTKDEAAAHLKL [IQUB]
QUALITATIVE LABEL: bin 0
//
RESIDUE STRING: RSGGHAPRVRELLLDALSPEQLVL [ESR2]
QUALITATIVE LABEL: bin 0
//
RESIDUE STRING: WRITNAKGDVEEVQGPGVVGEFPI [FBXO3]
QUALITATIVE LABEL: bin 1
//
RESIDUE STRING: NHEEEVNTLRSQLGDRLNVEVDTA [KRT34]
QUALITATIVE LABEL: bin 2
//
RESIDUE STRING: MLWEHNSTIVVMLTKLREMGREKC [PTPRD]
QUALITATIVE LABEL: bin 0
//
RESIDUE STRING: VLMVGPNFRVGKKIGCGNFGELRL [CSNK1G1]
QUALITATIVE LABEL: bin 0
//
RESIDUE STRING: ANPSIRDKEGYNSIHYAAAYGHRQ [ANKRD44]
QUALITATIVE LABEL: bin 1
//
RESIDUE STRING: NNSNLQRMGSSESTDSGFCLDSPG [CDC25A]
QUALITATIVE LABEL: bin 2
//
RESIDUE STRING: LWAGSKGKEFGYFPRDAVQIEEVF [MIA2]
QUALITATIVE LABEL: bin 0
//
RESIDUE STRING: FPYFRSDRDKRDFVSAGAAAGVAA [CLCN6]
QUALITATIVE LABEL: bin 1
//
RESIDUE STRING: ITAGAHRLWSHRSYKARLPLRLFL [SCD]
QUALITATIVE LABEL: bin 0

----------
# ASSAY NAME: protein stability index of a GFP-peptide fusion (GPS, HEK-293T) (PSI 1-6); higher = more stable
# MEASUREMENT CONDITIONS: treatment: MLN4924 1 uM, 8 h; c terminus: a fixed tail appended

RESIDUE STRING: SIPLTPGDTPIRKKEELLFDDGDD [FBF1]
protein stability index: 5.62
//
RESIDUE STRING: SAEELRKARSNSTLSKSEYMVIEE [KCNA3]
protein stability index: 4.93
//
RESIDUE STRING: TLARCAKDILGFAVMFFIVFFAYA [PKD2L1]
protein stability index: 2.68
//
RESIDUE STRING: FTELRLLLDEEEALAKKFIDKNTQ [TRIM14]
protein stability index: 3.44
//
RESIDUE STRING: VLSEGSPLTEQEESSPSHDRSRTV [SRPK2]
protein stability index: 5.32
//
RESIDUE STRING: DASVQPGPFRTLLQFLYTGQLDEK [RHOBTB1]
protein stability index: 2.72
//
RESIDUE STRING: KADLEVSNRHGHTCLMISCYKGHK [FEM1C]
protein stability index: 2.91
//
RESIDUE STRING: ANAAKHTQDSARVNPQDGTNTLTR [EHMT1]
protein stability index: 5.19
//
RESIDUE STRING: EADINGLRRVLDELTLSKTDLEMQ [KRT13]
protein stability index: 4.26
//
RESIDUE STRING: IEAGAHMDATNAFKKTAYELLDEK [FEM1A]
protein stability index: 5.04
//
RESIDUE STRING: MPSTPGFVGYNPYSHLAYNNYRLG [SMARCE1]
protein stability index: 2.42
//
RESIDUE STRING: MAAGSEPESVEASPVVVEKSNSYP [KMT2E]
protein stability index: 5.19
//
RESIDUE STRING: RDQIFRYVHDPECVATTGDITVSV [FBXO3]
protein stability index: 2.42
//
RESIDUE STRING: LRFSGVNDTDFRVYLLGNPVVWWL [POMT2]
protein stability index: 2.96
//
RESIDUE STRING: RPGQAPIGNPPVGPIGGMMPPQPG [ZNF207]
protein stability index: 4.28
//
RESIDUE STRING: LVETNRREVEQWFATQTEELNKQV [KRT33B]
protein stability index: 4.49
//
RESIDUE STRING: TAFLPDSKCLVDDGTGRMPTLKKC [GALNT9]
protein stability index: 4.16
//
RESIDUE STRING: CKAFFKRSIQGHNDYICPATNQCT [ESR2]
protein stability index: 2.45
//
RESIDUE STRING: TFFGTELAPVRQQELASLLRTYLA [PBXIP1]
protein stability index: 2.48
//
RESIDUE STRING: VPIKPPCIPNGKENFSGGTSLWQN [CAMK2D]
protein stability index: 2.71
//
RESIDUE STRING: NLTIRAGALTGKENNMLQPETHIF [DMRTC1]
protein stability index: 3.17
//
RESIDUE STRING: GGLNRETNEKMLKAVFGKHGPISE [RBMY1A1]
protein stability index: 3.81
//
RESIDUE STRING: KSTWPRYSKPGLSMRLLESKKGLS [TCF25]
protein stability index: 3.12
//
RESIDUE STRING: KAGSSEWLAVDGLVSPSNNSKEDA [ATF4]
protein stability index: 5.14
//
RESIDUE STRING: HQHEEIQNVRNHIHSCFSDVTCFL [ATL3]
protein stability index: 2.26
//
RESIDUE STRING: SRDGMNIVLNKINQILMEKYLKLQ [INTS3]
protein stability index: 2.43
//
RESIDUE STRING: EREEEDDALDSEGRDSEGPAEGEG [KCNG1]
protein stability index: 5.74
//
RESIDUE STRING: EENMERIGEEVRQLMEKLREKQLS [BEX1]
protein stability index: 4.35
//
RESIDUE STRING: GFALNPDKKTCTKIDYCASSNHGC [MATN2]
protein stability index: 3.57
//
RESIDUE STRING: QLSRELSTLRNLFKQLPEPLLASS [CEBPB]
protein stability index: 2.37
//
RESIDUE STRING: NTEVVQVAAGRTQKAGVTRSGRLI [NEK8]
protein stability index: 4.4
//
RESIDUE STRING: MERARDRLHLRRTTEQHVPEVEVQ [SNURF]
protein stability index: 4.72
//
RESIDUE STRING: QLEEKLEIANEDRKHALERFEQEA [CCDC89]
protein stability index: 5.4
//
RESIDUE STRING: RALLRRFPRMLLVDRLPGLQGALD [ZSWIM9]
protein stability index: 2.52
//
RESIDUE STRING: FKLADPDEVARRWGKRKNKPKMNY [ETS2]
protein stability index: 3.67
//
RESIDUE STRING: TSSSLGDKSEYLEMEEGVKESLCA [KCNA4]
protein stability index: 4.77
//
RESIDUE STRING: IDYYESKIRKIHTQRQYKEDESQS [CEP70]
protein stability index: 4.2
//
RESIDUE STRING: TPVSNSLLPEKAFSDIPSPYLRGT [GFOD1]
protein stability index: 3.98
//
RESIDUE STRING: VSGLLVGYELGIISGALLQIKTLL [SLC2A12]
protein stability index: 2.97
//
RESIDUE STRING: LFSDDYGGKNCKKPAEYGYVSLGR [CEBPB]
protein stability index: 3.2
//
RESIDUE STRING: PVLQSRTGLVYDQNMMNHCNLWDS [HDAC6]
protein stability index: 2.93
//
RESIDUE STRING: DHIIEKKRTIIPTLVEAIKEQDGR [DFFB]
protein stability index: 4.68
